target: human TRPV1 (Homo sapiens); test: FLIPR Ca2+ assay, reduction of L-Menthol activation of TRPV1; details: read-out: % Reduction of L-Menthol TRPV1 Activation
Sequence (Q8NER1 whole entry): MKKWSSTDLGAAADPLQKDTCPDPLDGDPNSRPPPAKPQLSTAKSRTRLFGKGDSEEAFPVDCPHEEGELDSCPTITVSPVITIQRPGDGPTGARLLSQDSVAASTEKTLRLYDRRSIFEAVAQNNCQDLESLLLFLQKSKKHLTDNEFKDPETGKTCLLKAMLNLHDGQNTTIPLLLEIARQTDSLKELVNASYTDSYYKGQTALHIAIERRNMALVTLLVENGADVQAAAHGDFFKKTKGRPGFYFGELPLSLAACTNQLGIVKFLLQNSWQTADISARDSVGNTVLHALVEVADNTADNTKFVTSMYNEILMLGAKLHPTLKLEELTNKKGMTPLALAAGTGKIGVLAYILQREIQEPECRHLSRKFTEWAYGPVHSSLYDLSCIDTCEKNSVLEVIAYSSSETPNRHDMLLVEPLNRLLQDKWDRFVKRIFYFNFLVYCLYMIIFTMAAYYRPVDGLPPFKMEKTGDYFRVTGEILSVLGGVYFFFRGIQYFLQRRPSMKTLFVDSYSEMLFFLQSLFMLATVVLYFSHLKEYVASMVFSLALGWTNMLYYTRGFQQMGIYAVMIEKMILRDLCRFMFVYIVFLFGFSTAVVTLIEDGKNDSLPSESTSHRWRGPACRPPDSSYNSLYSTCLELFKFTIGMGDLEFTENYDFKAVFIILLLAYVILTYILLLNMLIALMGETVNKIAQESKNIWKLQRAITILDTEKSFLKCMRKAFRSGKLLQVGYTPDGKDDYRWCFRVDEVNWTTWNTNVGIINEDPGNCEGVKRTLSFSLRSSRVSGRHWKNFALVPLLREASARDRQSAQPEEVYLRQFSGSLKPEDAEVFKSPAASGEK
METRIC_NAME: inhibition at 100 µM (%)
Write the number in % without appending the unit.

Some compounds with known inhibition at 100 µM results, for comparison:
CC(=O)C(=O)CC(C)C :: 26.4
CCCOC(=O)C(C)=O [propyl pyruvate] :: 40.9

# context switch: different compound, same inhibition at 100 µM
The value of inhibition at 100 µM measured for the compound CC(S)C(C)S (stereo not drawn) turned out to be 64.8

* * *

target: human TRPA1 (Homo sapiens); test: FLIPR Ca2+ assay, reduction of hydrogen peroxide activation of TRPA1; assay type: cell-based; parameters: expressed in transfected cells
Sequence (O75762 whole entry): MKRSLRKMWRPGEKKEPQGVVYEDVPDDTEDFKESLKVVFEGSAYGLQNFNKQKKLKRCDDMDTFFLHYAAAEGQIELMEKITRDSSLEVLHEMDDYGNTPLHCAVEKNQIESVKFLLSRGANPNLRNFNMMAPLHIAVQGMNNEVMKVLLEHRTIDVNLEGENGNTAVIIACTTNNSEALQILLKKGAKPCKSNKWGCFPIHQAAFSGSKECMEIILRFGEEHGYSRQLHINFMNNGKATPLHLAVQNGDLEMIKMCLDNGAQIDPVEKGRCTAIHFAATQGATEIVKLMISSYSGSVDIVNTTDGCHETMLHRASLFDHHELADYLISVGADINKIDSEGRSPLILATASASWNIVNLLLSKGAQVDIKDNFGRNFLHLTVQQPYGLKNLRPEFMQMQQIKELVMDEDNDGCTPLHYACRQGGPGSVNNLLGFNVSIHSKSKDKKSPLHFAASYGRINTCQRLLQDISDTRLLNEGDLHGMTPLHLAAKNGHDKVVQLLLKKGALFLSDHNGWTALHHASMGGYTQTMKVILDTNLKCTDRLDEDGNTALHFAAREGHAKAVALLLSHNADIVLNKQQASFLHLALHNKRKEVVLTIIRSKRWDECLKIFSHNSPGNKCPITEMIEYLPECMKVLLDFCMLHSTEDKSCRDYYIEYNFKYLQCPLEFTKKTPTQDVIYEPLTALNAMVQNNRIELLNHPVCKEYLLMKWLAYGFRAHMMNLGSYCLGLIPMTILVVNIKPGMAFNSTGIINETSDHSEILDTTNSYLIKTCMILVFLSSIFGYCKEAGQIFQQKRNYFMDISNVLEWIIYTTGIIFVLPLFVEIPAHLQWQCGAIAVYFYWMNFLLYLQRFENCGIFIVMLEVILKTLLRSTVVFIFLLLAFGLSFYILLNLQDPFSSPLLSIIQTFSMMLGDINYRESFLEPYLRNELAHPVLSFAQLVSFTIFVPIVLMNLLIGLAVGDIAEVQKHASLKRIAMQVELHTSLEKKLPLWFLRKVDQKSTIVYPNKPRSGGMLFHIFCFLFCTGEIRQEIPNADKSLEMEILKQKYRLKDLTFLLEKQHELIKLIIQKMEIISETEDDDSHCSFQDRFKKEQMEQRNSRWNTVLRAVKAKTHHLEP
Reported % Reduction of Hydrogen Peroxide TRPA1 Activation values are given for each entry in this list.
Write the number in % without appending the unit.

The value of % Reduction of Hydrogen Peroxide TRPA1 Activation measured for the compound CC1=CC(=O)[C@@H]2C[C@H]1C2(C)C (racemic) turned out to be 54.1

Values were extracted from patent US20130315843A1.
